The origin of these recorded values is paper PMC4750701.

What CC50 at 5 days was measured for each of the following?
# Assay notes: Cytotoxicity in HepG2 (galactose) cells, 5-day treatment
# Measurement parameters: human, HepG2 cells (galactose)

Recorded result, C[C@@]1(O)[C@H](O)[C@@H](CO)O[C@H]1n1ccc(N)nc1=O [2′CMeC, 2′-C-methyl (2′CMe) cytidine] , CC50 at 5 days: > 89 µM

Recorded result, C[C@@]1(F)[C@H](O)[C@@H](CO)O[C@H]1n1ccc(N)nc1=O [PSI-6130] , CC50 at 5 days: > 89 µM

Recorded result, COc1ccc(C[C@H](N)C(=O)N[C@H]2[C@@H](O)[C@H](n3cnc4c(N(C)C)ncnc43)O[C@@H]2CO)cc1 [Puromycin] , CC50 at 5 days: 0.65 µM

Recorded result, [N-]=[N+]=N[C@]1(CO)O[C@@H](n2ccc(N)nc2=O)[C@H](O)[C@@H]1O [4′-AzidoC, 4′-azido cytidine] , CC50 at 5 days: > 89 µM

Recorded result, O=C(N[C@H](CO)[C@H](O)c1ccc([N+](=O)[O-])cc1)C(Cl)Cl [Chloramphenicol] , CC50 at 5 days: > 89 µM

Recorded result, CCOc1nc(N)nc2c1ncn2[C@@H]1O[C@@H]2COP(=O)(OC(C)C)O[C@H]2[C@@]1(C)F (stereo partly drawn) [PSI-938] , CC50 at 5 days: > 89 µM
